# System: K562
# assay_procedure: NCI tumour cell line growth inhibition, 48 h
Calls of active or inactive are those of the source. Cut-off read from the data, not from the text of the source: active = GI50 up to about 1.1 µM and inactive = higher.
This listing pairs compounds with measured GI50.

compound	GI50
C[S+]=c1sc2ccccc2s1	> 100 µM (inactive)
CC1(C)CC(/C=C2/OC(=O)c3ccccc32)=C(C(N)=O)C(=O)O1	> 100 µM (inactive)
c1cncc(-c2ncc3cccnc3n2)c1	> 100 µM (inactive)
O=C(O)CC[P+](c1ccccc1)(c1ccccc1)c1ccccc1	11.7 µM (inactive)
O=C1C=C(O)C(=O)c2c(O)ccc(O)c21	> 100 µM (inactive)
CCOP(=O)(C/C=C/Cn1ncc(=O)[nH]c1=O)OCC	> 100 µM (inactive)
COc1nc2ccc(COc3ccc(C(=O)NC(CCC(=O)O)C(=O)O)cc3)cc2nc1OC (stereo unspecified)	> 10 µM (inactive)
O=C(NCCc1ccccc1)C1C(=O)C(=O)N(CCc2ccccc2)C1=O (stereo unspecified)	> 100 µM (inactive)
CN(C(=O)C12C3C4C1C1C2C3C41C(=O)N(C)C(C)(C)C)C(C)(C)C (stereo unspecified)	> 50 µM (inactive)
CCn1c(SCc2nnc(Nc3ccccc3)s2)nc2ccccc2c1=O	19.8 µM (inactive)
Nc1ccc2c3c1cccc3c(=O)n1c3ccc(Cc4ccc5c(c4)nc4c6ccc(N)c7cccc(c(=O)n54)c76)cc3nc21	> 100 µM (inactive)
COC1OC(CO)C(O)C(NC(=O)N(C)N=O)C1O (stereo unspecified)	> 100 µM (inactive)
CC(C)C[C@H](NC(=O)[C@H](Cc1ccccc1)NC(=O)CCc1ccccc1)B(O)O	< 0.01 µM (active)
Cc1ccc(C(=O)NC2C(=O)NC(C(C)C)C(=O)N3CCCC3C(=O)N(C)CC(=O)N(C)C(C(C)C)C(=O)OC2C)c2c1Oc1c(c(C(=O)NC3C(=O)NC(C(C)C)C(=O)N4CCCC4C(=O)N(C)CC(=O)N(C)C(C(C)C)C(=O)OC3C)c3nc(-c4ccccc4)c(=O)oc3c1C)N2 (stereo unspecified)	0.00312 µM (active)
O=C(O)[C@@H]1CCCN1 [PROLINE]	> 100 µM (inactive)
COC(=O)C1=C(O)c2cc(OC)c(OC)c(OC)c2[C@H](c2cc(OC)c(OC)c(OC)c2)C1C(=O)OC (stereo partly specified)	24.5 µM (inactive)
O=Cc1ccc(-c2cccc([N+](=O)[O-])c2)s1	72.1 µM (inactive)
COC(=O)C1CC2CC(=NNC(N)=O)CC2C1 (stereo unspecified)	> 100 µM (inactive)
O=C1/C(=C2/CCCN2)C(c2ccc[nH]2)=NN1c1ccccc1	> 100 µM (inactive)
CCOC(=O)c1ccc2c(=O)n3c(C(=O)OCC)ccc3c(=O)n12	> 100 µM (inactive)
O=C(O)c1cc2ccc3ccccc3c2oc1=O	> 100 µM (inactive)

====

# Test system: SK-MEL-5
# assay_procedure: NCI tumour cell line growth inhibition, 48 h
Calls of active or inactive are those of the source. Cut-off read from the data, not from the text of the source: active = GI50 up to about 1.1 µM and inactive = higher.
Entries annotated with measured GI50
property_label: GI50

In [3]: df
Out[3]:
                                   molecule  property_label               result
0  CCC(C(=O)C(=O)C(CC)P1(=O)OC(C)(C)CN1C(C)(C)C)P1(=O)OC(C)(C)CN1C(C)(C)C (stereo not given)            GI50  > 100 µM (inactive)
1  C[C@]12C/C(=C/O)C(=O)C(O)=C1CC[C@@H]1C2CC[C@@]2(C)C1CC[C@@H]2O (stereo not given in full)            GI50   20.2 µM (inactive)
2  C(/C=N/c1ccccc1)=C(/Nc1ccccc1)c1ccc2ccccc2c1            GI50   2.63 µM (inactive)
3               Cc1ccc(Nc2n[nH]c(=S)s2)cc1C            GI50   68.2 µM (inactive)
4  O=C(O)c1cccc(S(=O)(=O)NN2C(=O)CSC2c2c(O)ccc3ccccc23)c1 (stereo not given)            GI50     21 µM (inactive)
5            O=C1C=C(O)C(=O)c2c(O)ccc(O)c21            GI50  > 100 µM (inactive)
6  Cc1ccc(/N=C2\OP(=O)(Nc3ccc(C)cc3)Oc3ccccc32)cc1 (stereo not given)            GI50   73.1 µM (inactive)
7  NC(=O)CCCC(NCc1c2ccccc2nc2ccccc12)C(=O)O (stereo not given)            GI50   94.6 µM (inactive)
8  COC1(OC)C2(Cl)C(Cl)=C(Cl)C1(Cl)C1C=CC=CC12 (stereo not given)            GI50   53.2 µM (inactive)
9  Cc1ccc(SC(=O)N2C(=S)N=C(NC3CCCCC3)C23CCCCC3)cc1            GI50  > 100 µM (inactive)

====

# System: HCC 2998
# assay_procedure: NCI tumour cell line growth inhibition, 48 h
Calls of active or inactive are those of the source. No stated cut-off is given here; in the data, active = GI50 up to about 1.1 µM and inactive = higher.
Classes used: 1 for active, -1 for inactive

molecule	qualitative_label
CC1(c2nc3ccccc3[nH]2)CCC(C(=O)O)C(C)(C)O1 (centres undefined)	-1
COc1cccc(NC(=O)CC(=O)N2N=C(N(CCC#N)c3ccccc3C)CC2c2ccccc2)c1 (centres undefined)	-1
N=C(CC/C(N)=N/O)NO	-1
Oc1ccc([C@H]2c3c(O)cc(O)cc3C3c4c(cc(O)cc4[C@@H]2[C@H]2c4cc(O)cc5c4C(c4cc(O)cc(O)c4[C@@H]2c2ccc(O)cc2)[C@@H](c2ccc(O)cc2)O5)O[C@@H]3c2ccc(O)cc2)cc1 (some centres undefined)	1

====

Here, each record is paired with measured GI50 data.
# Test system: A498
# assay_procedure: NCI tumour cell line growth inhibition, 48 h
The source made the active and inactive calls. Rule as the data show it: active = GI50 up to about 1.1 µM and inactive = higher.
property_label: GI50

In [3]: df
Out[3]:
                                   molecule  property_label               result
0  CN(C)C(=S)/N=c1\ss/c(=N\S(=O)(=O)c2ccccc2)n1C            GI50  > 100 µM (inactive)
1  CN(C)CCCC1c2ccccc2Oc2ccc(C(F)(F)F)cc21 (stereo not given)            GI50   10.8 µM (inactive)
2  Cc1cn(CC2=NC3CCCCC3N2)c(=O)[nH]c1=O (stereo not given)            GI50  > 100 µM (inactive)
3  COc1ccc(C(=O)C(C(=O)C(=O)Nc2nc3ccc(OC)cc3s2)c2ccc(OC)cc2)cc1 (stereo not given)            GI50  > 100 µM (inactive)
4  CCNC(=O)CCN(C(=O)O)S(=O)(=O)c1ccc(NC(=O)c2ccccc2)cc1            GI50  > 100 µM (inactive)

====

# System: 786-0
# assay_procedure: NCI tumour cell line growth inhibition, 48 h
Active and inactive are the calls of the source. No stated cut-off is given here; in the data, active = GI50 up to about 1.1 µM and inactive = higher.
Reported values of GI50 for individual entries
property_label: GI50

compound	result
O=C1OC(C2Cc3ccc4ccccc4c3C2=O)c2ccccc21 (stereo not drawn)	46.3 µM (inactive)
C[C@]12CC[C@@H]3c4ccc(OC(=O)c5ccccc5)cc4CC[C@H]3[C@@H]1CC[C@@H]2Oc1c2ccccc2nc2ccccc12	7.66 µM (inactive)
COC(=O)C1=C(O)c2cc(OC)c(OC)c(OC)c2[C@H](c2cc(OC)c(OC)c(OC)c2)C1C(=O)OC (stereo partly drawn)	34 µM (inactive)
CC(C)OP(=O)(OC(C)C)C(C(C)C)N(C)/C(F)=N/C(F)(F)F (stereo not drawn)	> 100 µM (inactive)
CN(C)CCNC(=O)c1cccc2nc3cc(Cl)ccc3nc12	3.79 µM (inactive)
Oc1ccc([C@H]2c3c(O)cc(O)cc3C3c4c(cc(O)cc4[C@@H]2[C@H]2c4cc(O)cc5c4C(c4cc(O)cc(O)c4[C@@H]2c2ccc(O)cc2)[C@@H](c2ccc(O)cc2)O5)O[C@@H]3c2ccc(O)cc2)cc1 (stereo partly drawn)	4.94 µM (inactive)
Brc1ccc(-c2cc(-c3ccc4c(c3)OCO4)c(-c3cccs3)n2Cc2ccccc2)cc1	> 100 µM (inactive)
C[C@]12CCC(=O)C(OC(=O)c3ccc([N+](=O)[O-])cc3)=C1CCC2=O	> 100 µM (inactive)

====

# System: COLO 205
# assay_procedure: NCI tumour cell line growth inhibition, 48 h
Calls of active or inactive are those of the source. Cut-off read from the data, not from the text of the source: active = GI50 up to about 1.1 µM and inactive = higher.
GI50 overview
property_label: GI50

In [3]: df
Out[3]:
                                   compound               result
0  CC1=C/C(=N\O)C(C(O)(C(F)(F)F)C(F)(F)F)C(C)(C)C1 (centres undefined)   > 10 µM (inactive)
1  CC(C)CCCC(C)[C@H]1CCC2[C@@H]3CCC4Nc5nocc5C[C@]4(C)C3CC[C@@]21C (some centres undefined)   6.14 µM (inactive)
2  CCN1C(=O)CS/C1=N/NC(=O)C(O)(c1ccccc1)C1C=CC=CC1 (centres undefined)   > 10 µM (inactive)
3  Nc1nc(Cl)cc(NCC2(O)CC(CO)C2)n1 (centres undefined)  > 100 µM (inactive)
4  N#Cc1c(-c2ccc(Cl)cc2)c2c([nH]c1=O)-c1ccccc1SC2   22.3 µM (inactive)
5  C[C@]12C/C(=C/O)C(=O)C(O)=C1CC[C@@H]1C2CC[C@@]2(C)C1CC[C@@H]2O (some centres undefined)   21.2 µM (inactive)
6   NS(=O)(=O)c1ccc(/C=C/c2ccc(O)c(O)c2)cc1   21.2 µM (inactive)
7  Nc1ccc2c3c1cccc3c(=O)n1c3ccc(Cc4ccc5c(c4)nc4c6ccc(N)c7cccc(c(=O)n54)c76)cc3nc21  > 100 µM (inactive)
8  CC(=O)OC1(C)C(=O)OC/C2=C/CN(C)CCC(OC(=O)C(O)(C(C)Cl)CC1C)C2=O.c1ccccc1 (centres undefined)  > 100 µM (inactive)
